Each recorded value in this set is attributed to patent US5138069A.

Measured minimal effective dose at 100 mg/kg, listed per entry.
- System: Renal Hypertensive Rats
- measurement.notes: Antihypertensive effects in renal hypertensive rats
- Assay type: in vivo
- run.parameters: Rattus norvegicus; Table 25; oral, 100 mg/kg or less

# chemical.smiles, data.value
records = [
    ("CCCCc1nc(Cl)c(CO)n1Cc1ccc(-c2ccccc2C(=O)NO)cc1", "> 100 mg/kg"),
    ("CCCCc1nc(I)c(CO)n1Cc1ccc(-c2ccccc2C(=O)O)cc1", "< 100 mg/kg"),
    ("CCCCc1nc(Cl)c(C(=O)OC)n1Cc1ccc(-c2ccccc2C(=O)O)cc1", "< 100 mg/kg"),
    ("CCCCc1nc(C(F)(F)F)c(C=O)n1Cc1ccc(-c2ccccc2-c2nnn[nH]2)cc1", "< 100 mg/kg"),
    ("CCCCc1nc(Cl)c(CC(=O)OC)n1Cc1ccc(NC(=O)c2c(C(=O)O)cccc2[N+](=O)[O-])cc1", "> 100 mg/kg"),
]

(Q) Please report the measured minimal effective dose at 100 mg/kg for `CCCCc1nc(Cl)c(CC(=O)O)n1Cc1ccc(OCc2ccccc2C(=O)O)cc1`
(A) > 100 mg/kg

(Q) Please report the measured minimal effective dose at 100 mg/kg for `CCCCc1nc(Cl)c(COC(C)C)n1Cc1ccc(-c2ccccc2C(=O)O)cc1`
(A) < 100 mg/kg

(Q) Please report the measured minimal effective dose at 100 mg/kg for `CCCCc1nc(Cl)c(CO)n1Cc1ccc(Oc2ccccc2C(=O)O)cc1`
(A) > 100 mg/kg

###

Measured minimal effective dose at 100 mg/kg, listed per entry.
- Tested on: Renal Hypertensive Rats
- measurement.notes: Antihypertensive effects in renal hypertensive rats
- Assay type: in vivo
- run.parameters: Rattus norvegicus; Table 25; oral, 100 mg/kg or less

// worked examples, minimal effective dose at 100 mg/kg included
# compound, data.value
records = [
    ("CCCCc1nc(Cl)c(CO)n1Cc1ccc(-c2cccc(C)c2C(=O)O)cc1 [Example 106]", "< 100 mg/kg"),
    ("CCCCc1nc(Cl)c(CCC(=O)OC)n1Cc1ccc(NC(=O)c2ccccc2C(=O)O)cc1 [Example 234]", "> 100 mg/kg"),
    ("CCCSc1ncc(CO)n1Cc1ccc(-c2ccccc2C(=O)O)cc1 [Example 93]", "> 100 mg/kg"),
    ("CCCCc1nc(Br)c(CO)n1Cc1ccc(-c2ccccc2C(=O)O)cc1 [Example 100]", "< 100 mg/kg"),
    ("CCCCc1nc(Cl)c(CC(=O)OC)n1Cc1ccc(NC(=O)c2c(Cl)ccc(Cl)c2C(=O)O)cc1 [Example 16]", "> 100 mg/kg"),
]

(Q) Please report the measured minimal effective dose at 100 mg/kg for CCCCc1ncc(CO)n1Cc1ccc(OCc2ccccc2C(=O)O)cc1 [Example 193]
(A) > 100 mg/kg

(Q) Please report the measured minimal effective dose at 100 mg/kg for CCCCc1nc(Cl)c(C(N)=O)n1Cc1ccc(-c2ccccc2C(=O)O)cc1 [Example 127]
(A) < 100 mg/kg

(Q) Please report the measured minimal effective dose at 100 mg/kg for CCCCc1nc(Cl)c(CO)n1Cc1ccc(-c2occc2C(=O)O)cc1 (single isomer, unassigned) [Example 178]
(A) < 100 mg/kg

(Q) Please report the measured minimal effective dose at 100 mg/kg for CCCCc1nc(Cl)c(CO)n1Cc1ccc(-c2ccccc2NS(=O)(=O)C(F)(F)F)cc1 [Example 144]
(A) < 100 mg/kg
